Assay: qHTS of pediatric cancer cell lines to identify multiple opportunities for drug repurposing: Primary screen for BT-12 cells (AID 1347101); note: nearly all actives have a fitted effect of over 25% in size
Conditions: BT-12 viability, CellTiter-Glo luminescence, 48 h; series mostly up to 57.3 µM
Description: Drug repurposing or repositioning has been offered as a strategy for drug development in oncology programs. […] [1] Shen, M et al. Quantitative high-throughput phenotypic screening of pediatric cancer cell lines identifies multiple opportunities for drug repurposing. […] Cells were assayed in growth media at a density of 500-1,000 cells/well. […] After a 15 min incubation at room temperature, samples were analyzed for luminescence intensity using a ViewLux High-throughput CCD imager equipped with clear filters.
Inconclusive results are not listed. Active and inactive are the calls of the source. Calls come from the whole dose curve; as a rule, active = well fitted cell-killing curve with a large enough effect; inconclusive = small, poorly fitted or top-dose-only effect; inactive = flat fitted curve, though single readings scatter.
reported endpoint: outcome

- compound: "O=C(O)CCNC(=O)c1ccc(N=Nc2ccc(O)c(C(=O)O)c2)cc1"
  result: "inactive"
- compound: "CC(=O)NC[C@H]1CN(c2ccc(N3CCOCC3)c(F)c2)C(=O)O1"
  result: "inactive"
- compound: "COCCCOc1ccnc(CS(=O)c2nc3ccccc3[nH]2)c1C (stereo not given)"
  result: "inactive"
- compound: "NC(=O)Cc1cccc(C(=O)c2ccccc2)c1N"
  result: "inactive"
- compound: "COC(=O)N[C@H](C(=O)N[C@@H](Cc1ccccc1)[C@@H](O)CN(Cc1ccc(-c2ccccn2)cc1)NC(=O)[C@@H](NC(=O)OC)C(C)(C)C)C(C)(C)C"
  result: "inactive"
- compound: "CCOc1cc(CC(=O)N[C@@H](CC(C)C)c2ccccc2N2CCCCC2)ccc1C(=O)O"
  result: "inactive"
- compound: "COC(=O)C1=C(C)NC(C)=C(C(=O)OC(C)C)C1c1cccc2nonc12 (stereo not given)"
  result: "inactive"
- compound: "CCCCN(CCCC)CCC(O)c1cc2c(Cl)cc(Cl)cc2c2cc(C(F)(F)F)ccc12 (stereo not given)"
  result: "inactive"
- compound: "O=c1c(O)c(-c2cc(O)c(O)c(O)c2)oc2cc(O)cc(O)c12"
  result: "inactive"
- compound: "Nc1cccc2c1CN(C1CCC(=O)NC1=O)C2=O (stereo not given)"
  result: "inactive"

###

target: Tyrosine-protein phosphatase non-receptor type substrate 1 (Homo sapiens) + Leukocyte surface antigen CD47 (Homo sapiens) (UniProt P78324+Q08722); test: CD47-SIRPalpha protein protein interaction - HTRF assay qHTS validation (AID 1347058); conditions: TR-FRET HTRF CD47-His / biotin-SIRPalpha binding, ratio 665/615; series mostly up to 38.3 µM;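 note: recombinant soluble extracellular CD47 with His tag and biotinylated SIRPalpha domains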
Sequence (P78324 whole entry, looked up, the tested form may be a part): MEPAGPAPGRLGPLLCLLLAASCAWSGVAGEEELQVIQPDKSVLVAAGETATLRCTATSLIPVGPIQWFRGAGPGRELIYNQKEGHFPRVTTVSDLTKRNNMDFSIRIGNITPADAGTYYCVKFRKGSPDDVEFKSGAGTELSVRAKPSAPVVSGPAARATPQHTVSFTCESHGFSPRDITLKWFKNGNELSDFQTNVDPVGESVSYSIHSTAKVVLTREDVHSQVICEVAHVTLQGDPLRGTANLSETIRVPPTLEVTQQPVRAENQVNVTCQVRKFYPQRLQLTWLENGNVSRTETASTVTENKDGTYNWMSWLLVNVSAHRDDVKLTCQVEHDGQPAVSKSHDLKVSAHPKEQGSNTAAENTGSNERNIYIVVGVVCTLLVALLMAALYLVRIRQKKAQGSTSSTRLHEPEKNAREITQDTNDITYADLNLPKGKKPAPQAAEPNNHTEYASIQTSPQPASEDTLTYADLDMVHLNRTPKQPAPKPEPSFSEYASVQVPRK
Sequence (Q08722 whole entry, looked up, the tested form may be a part): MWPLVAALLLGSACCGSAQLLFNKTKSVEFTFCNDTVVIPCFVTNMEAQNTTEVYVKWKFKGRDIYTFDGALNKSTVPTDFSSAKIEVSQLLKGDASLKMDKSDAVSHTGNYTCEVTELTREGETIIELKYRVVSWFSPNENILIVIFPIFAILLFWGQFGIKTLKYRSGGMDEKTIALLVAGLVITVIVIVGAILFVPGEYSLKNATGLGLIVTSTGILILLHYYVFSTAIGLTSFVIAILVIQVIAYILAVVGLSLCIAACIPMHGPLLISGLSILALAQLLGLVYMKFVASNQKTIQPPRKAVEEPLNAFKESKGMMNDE
Results filed as inconclusive are left out. Active and inactive are the calls of the source. The call rests on the fitted dose curve; in most records, active means well fitted curve in the direction sought with a large enough effect in the signal ratio (not every such curve was filed as active); inconclusive means small, poorly fitted or top-dose-only effect, or effect the other way, or a change in a side signal; inactive means no such curve, though single readings can be large or run the other way; the % refers to the signal ratio.
reported endpoint: outcome

- molecule: "C[C@@H](c1ncncc1F)[C@](O)(Cn1cncn1)c1ccc(F)cc1F"
  result: "inactive"
- molecule: "NCCCCNCCCN"
  result: "inactive"
- molecule: "Clc1ccc2c(N3CCN(CCCN4CCN(c5ccnc6cc(Cl)ccc56)CC4)CC3)ccnc2c1"
  result: "inactive"
- molecule: "CCN(CC)C(=S)SSC(=S)N(CC)CC"
  result: "inactive"
- molecule: "O=C(c1ccccc1)c1ccc2n1CCC2C(=O)O (centres undefined)"
  result: "inactive"
- molecule: "Oc1ccc2ccccc2c1SSc1c(O)ccc2ccccc12"
  result: "inactive"
- molecule: "COc1ccccc1N1CCN(CCN(C(=O)C2CCCCC2)c2ccccn2)CC1"
  result: "inactive"
- molecule: "CN(C)C(=O)[C@H](O)[C@H](Cc1ccccc1)NC(=O)c1cc2cc(Cl)ccc2[nH]1"
  result: "inactive"
- molecule: "CNC[C@H](O)c1ccc(O)c(O)c1"
  result: "inactive"
